Quick reference for normalized SmoIP GFP fluorescence among some molecules
System: Drosophila S2 cl14 SmoIP sensor cells;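 also: flow cytometry read-out as median GFP intensity of gated cells, compounds added 30 min before Hh-conditioned or mock medium, mock-treated cells serving as unstimulated baseline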
procedure_summary: normalized SmoIP GFP fluorescence (untreated unstimulated = 0%, untreated Hh-stimulated = 100%); higher = more Smo activation sensor fluorescence
test_parameters: stimulation: mock conditioned medium (-Hh); compound concentration: 2 uM; 24 h
Where a name gives a salt, the structure may show the parent alone.

{"molecule": "CCCCCCCN(CC)CCCC(O)c1ccc(NS(C)(=O)=O)cc1 (stereo not drawn) [ibutilide-fumarate]", "unit_abbreviation": "%", "normalized SmoIP GFP fluorescence": -6.16}
{"molecule": "CC(C)(CO)c1cc2cc(NC(=O)C3(c4ccc5c(c4)OC(F)(F)O5)CC3)c(F)cc2n1C[C@@H](O)CO", "unit_abbreviation": "%", "normalized SmoIP GFP fluorescence": -3.39}
{"molecule": "Cc1c(CN2CCN(C(=O)[C@H](C)O)CC2)sc2c(N3CCOCC3)nc(-c3cnc(N)nc3)nc12", "unit_abbreviation": "%", "normalized SmoIP GFP fluorescence": -4.35}
{"molecule": "COc1ccccc1OCCNCC(O)COc1cccc2[nH]c3ccccc3c12 (stereo not drawn) [carvedilol]", "unit_abbreviation": "%", "normalized SmoIP GFP fluorescence": -7.78}
{"molecule": "CC(=O)NS(=O)(=O)c1ccc(N)cc1 [sulfacetamide-sodium]", "unit_abbreviation": "%", "normalized SmoIP GFP fluorescence": -5.72}
{"molecule": "CN(C)C(=O)C(CCN1CCC(O)(c2ccc(Cl)cc2)CC1)(c1ccccc1)c1ccccc1 [Loperamide-hydrochloride]", "unit_abbreviation": "%", "normalized SmoIP GFP fluorescence": 7.46}
{"molecule": "CC(COc1ccccc1)N(CCCl)Cc1ccccc1 (stereo not drawn) [Phenoxybenzamine-hydrochloride]", "unit_abbreviation": "%", "normalized SmoIP GFP fluorescence": -12.4}
{"molecule": "Cc1nccn1CC1CCc2c(c3ccccc3n2C)C1=O (stereo not drawn) [Ondansetron-hydrochloride]", "unit_abbreviation": "%", "normalized SmoIP GFP fluorescence": -2.96}
